# growth per record follows
Test system: NCI-H522 lung
protocol-notes: NCI-60 one-dose screen, 48 h (100 = growth as untreated, 0 = no growth, -100 = all killed)
setup-conditions: 10 µM unless noted
About 83,000 compounds went through this panel and 20% of them were active in at least one assay; those are over-represented in the sample as a whole.
Numeric answer only, unit % assumed.

Previously resolved entries follow.
In [3]: df
Out[3]:
                        structure_as_smiles      tested_on  units  obs_value
0  Cc1onc(-c2c(F)cccc2Cl)c1-c1ncc(-c2ccc(Br)cc2)o1  NCI-H522 lung      %       41.9
1                CCCCCCCCCc1ccc(OC(C)=O)cc1  NCI-H522 lung      %       99.4
2                    O=C1C=CC(=O)C2=C1CCCC2  NCI-H522 lung      %         94
3        Oc1ccc(N=Cc2ccc(OCc3ccccc3)cc2)cc1  NCI-H522 lung      %       90.8

// switching to the query molecule
Request: growth, test system NCI-H522 lung, entry `Cc1ccc(C)c(CCO)c1`
97.8

----------
Tested on: OVCAR-8 ovarian
protocol-notes: NCI-60 one-dose screen, 48 h (100 = growth as untreated, 0 = no growth, -100 = all killed)
setup-conditions: 10 µM unless noted
This is part of a sample that, as a whole, favours compounds with a hit. Of some 83,000 tested, about 20% had one in any assay.
readout-label: growth (%)
Numeric answer only, unit % assumed.

Previously resolved entries follow.
In [3]: df
Out[3]:
                                   compound  units  obs_value
0     CN(C)c1ccc2nc3ccc(=[N+](C)C)cc-3oc2c1      %       8.48
1   O=C(CC(CC(=O)c1ccccc1)c1ccccn1)c1ccccc1      %        101
2  Cc1cccc(C)c1NC(=S)/N=C\c1c(O)[nH]c(=O)[nH]c1=O      %        108
3       O=C(O)CSCC(=O)Nc1cc(C(F)(F)F)ccc1Cl      %        107
4                CCOC(=O)C(C#N)=C1CCN(C)CC1      %         93
5  COC(=O)C1(CC(C)=O)NC(=S)NC(=O)C1C#N (centres undefined)      %        112
6                             NCCCN1CCCC1=O      %       97.5
7                    COC(=O)C1=C(C)C(=O)CC1      %        109

// switching to the query compound
Which growth value belongs to `Cc1ccc(C)c(CCO)c1` ?
98.8

----------
# growth per record follows
Test system: DU-145 prostate
protocol-notes: NCI-60 one-dose screen, 48 h (100 = growth as untreated, 0 = no growth, -100 = all killed)
setup-conditions: 10 µM unless noted
This is part of a sample that, as a whole, favours compounds with a hit. Of some 83,000 tested, about 20% had one in any assay. Activity calls are given as the source filed them. The calls were made as follows: active = growth percent below 10; inactive = the rest.

Previously resolved entries follow.
In [3]: df
Out[3]:
                                   molecule         obs_value
0  CN=S(=O)(OCCCCCOS(=O)(=NC)c1ccc(C)cc1)c1ccc(C)cc1 (stereo unspecified)  85.7% (inactive)
1  CN1C(=O)NC(c2ccc(Cl)cc2)(c2ccc(Cl)cc2)C1=O   102% (inactive)
2                   C=CCc1cc(OC)c(O)c(OC)c1   107% (inactive)
3  CC(C)=CCC[C@@H](C)[C@H]1CC[C@@]2(C)C3=C(CC[C@]12C)[C@@]1(C)CC[C@H](O)C(C)(C)[C@@H]1CC3   126% (inactive)
4  NC(=S)c1c(N)n(C2OC(CO)C(O)C2O)c2ncnc(N)c12 (stereo unspecified)    4.75% (active)

// switching to the query molecule
Which growth value belongs to O=S(Cc1ccccc1)/C(=C/NC(=S)Nc1ccccc1)c1ccccc1 (stereo unspecified) ?
104% (inactive)

----------
Tested on: HCT-15 colon
protocol-notes: NCI-60 one-dose screen, 48 h
setup-conditions: 10 µM unless noted
This is part of a sample that, as a whole, favours compounds with a hit. Of some 83,000 tested, about 20% had one in any assay. The source made the active and inactive calls. The calls were made as follows: active = growth percent below 10; inactive = the rest.
Please reply with one of these outcomes: y = active, n = inactive

Look over these answered cases.
>>> df
                                 compound     tested_on  class
0              CC(=O)N(C(C)=O)c1ccc(C)cc1  HCT-15 colon      n
1        O=C(Nc1cccc(Cl)c1)c1ccc(Cl)cc1Cl  HCT-15 colon      n
2  COc1cccc(C(=O)NNC(=O)c2cccc3ccccc23)c1  HCT-15 colon      n
3                   Cc1ccc(C2CCCCC2)cc1Br  HCT-15 colon      n

Answer briefly: the call reported for `Nc1cc(N)ncn1` in this assay.
n

Answer briefly: the call reported for `CC(=O)Oc1c(Cl)cccc1-c1ccccc1` in this assay.
n

Answer briefly: the call reported for `NC(=S)N/N=C/c1ccc(Cl)cc1` in this assay.
n

Answer briefly: the call reported for `CCNCC(C)(C)O` in this assay.
n

Answer briefly: the call reported for `Cc1c(Cl)cccc1N=C=S` in this assay.
n

Answer briefly: the call reported for `Nc1ccc2c(c1)Cc1cc(N)c(N)cc1-2` in this assay.
n

Answer briefly: the call reported for `Cc1ccc([N+](=O)[O-])c(C)n1` in this assay.
n

Answer briefly: the call reported for `CCOP(=O)(OCC)/C(=C\N1C(=O)CC(=O)NC1=S)C(=O)OC` in this assay.
n

Answer briefly: the call reported for CC(C)(C)CC1(C)NC(=O)NC1=O (configuration not stated) in this assay.
n

Answer briefly: the call reported for `OC1Cc2ccccc2C1` in this assay.
n

Answer briefly: the call reported for `CCOC(=O)C(CCC#N)(CCC#N)C(=O)OCC` in this assay.
n

Answer briefly: the call reported for `COc1c(CNC(=O)CCl)cc2[nH]c(C)cc2c1CNC(=O)CCl` in this assay.
n

Answer briefly: the call reported for `Nc1ncnc(Nc2ccc(C(F)(F)F)cc2)n1` in this assay.
n

Answer briefly: the call reported for `Cc1ccc(S(=O)(=O)NC(=O)NCCSSCCNC(=O)NS(=O)(=O)c2ccc(C)cc2)cc1` in this assay.
n

Answer briefly: the call reported for `Cc1cc2c(C(C)C)c(O)c(O)c(C=Nc3ccccc3[N+](=O)[O-])c2c(O)c1-c1c(C)cc2c(C(C)C)c(O)c(O)c(C=Nc3ccccc3[N+](=O)[O-])c2c1O` in this assay.
n

Answer briefly: the call reported for `CN(C)c1ccc(/C=C/C(=O)c2ccc(NC(N)=O)cc2)cc1` in this assay.
n

Answer briefly: the call reported for `OCCc1ccc(Cl)cc1` in this assay.
n

Answer briefly: the call reported for `CCOC(=O)CNC(=O)Sc1ccc(C(C)(C)C)cc1` in this assay.
n

Answer briefly: the call reported for NC(CSSCC(N)C(=O)O)C(=O)O (configuration not stated) in this assay.
n

Answer briefly: the call reported for `S=C(Sc1ccc(Cl)cc1)Sc1ccc(Cl)cc1` in this assay.
y

Answer briefly: the call reported for `CCCOCc1cn[nH]n1` in this assay.
n

Answer briefly: the call reported for `CC(=O)c1ccc(C)cc1` in this assay.
n

Answer briefly: the call reported for `O=S(=O)(O)c1cccnc1` in this assay.
n

----------
# growth per record follows
Test system: NCI-H23 lung
protocol-notes: NCI-60 one-dose screen, 48 h (100 = growth as untreated, 0 = no growth, -100 = all killed)
setup-conditions: 10 µM unless noted
The panel holds about 83,000 compounds, 20% with a hit somewhere; the sample as a whole holds those more often.
Numeric answer only, unit % assumed.

Previously resolved entries follow.
In [3]: df
Out[3]:
                                   compound     tested_on  readout_label  units  obs_value
0  COc1cc(-c2ccc(NC(=O)CC(C)=O)c(OC)c2)ccc1NC(=O)CC(C)=O  NCI-H23 lung         growth      %         96
1                 CSc1nc2[nH]ncc2c(=O)[nH]1  NCI-H23 lung         growth      %       94.8
2                  Cc1ccc(S(=O)(=O)CCCl)cc1  NCI-H23 lung         growth      %        102

Which growth value belongs to `COc1nc(Nc2cccc(C(F)(F)F)c2)nc(OC)n1` ?
97.2

Which growth value belongs to CC(=O)NC(CCc1ccc(Cl)c(Cl)c1)c1cccc(O)c(=O)c1 (stereo not given) ?
21.8

Hey, just so you know, these numbers are from PubChem BioAssay (NCI).
